- TEST_TARGET: human adenosine A1 receptor (Homo sapiens)
- Construct: expressed in transfected cells; host or cells: HEK293 cells infected with BacMam (the same paragraph also labels the preparation CHO-hA1)
- Sequence (P30542 whole entry): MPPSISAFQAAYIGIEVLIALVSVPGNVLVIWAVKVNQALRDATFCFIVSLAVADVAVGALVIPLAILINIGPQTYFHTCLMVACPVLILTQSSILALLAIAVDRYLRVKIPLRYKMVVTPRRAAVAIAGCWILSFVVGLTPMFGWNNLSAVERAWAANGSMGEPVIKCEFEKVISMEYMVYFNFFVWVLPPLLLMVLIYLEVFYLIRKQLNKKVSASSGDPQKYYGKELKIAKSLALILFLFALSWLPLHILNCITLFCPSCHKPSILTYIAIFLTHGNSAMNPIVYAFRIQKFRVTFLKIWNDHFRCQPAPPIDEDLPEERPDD
- TEST_DESCRIPTION: Inhibition binding assay, human adenosine A1 receptor membranes, [3H]DPCPX
- CONDITION_INFO: 1 nM [3H]DPCPX, 25° C., 1 h; IC50 converted to Ki with Cheng-Prusoff; read-out: A1 pKi (converted)
Item-by-item account of Ki

MOLECULE	VALUE_RELATION_SIGN	Ki [nM]
COC(=O)CCn1nc2c(-c3cc(C)nc(C)c3)c(-c3ccccc3)nc(N)n2c1=O	=	501
Cc1cc(-c2c(-c3ccc(F)cn3)nc(N)n3c(=O)n(CCC(F)(F)F)nc23)cc(C)n1	>	3160
Cc1cc(-c2c(-c3ccccc3)nc(N)n3c(=O)n(CC4CCCOC4)nc23)cc(C)n1 (single isomer, unassigned) [Example 2-81-iso-2]	=	126
Cc1cc(-c2c(-c3ccc(F)cc3)nc(N)n3c(=O)n(CCC(F)(F)F)nc23)cc(C)[n+]1[O-]	=	1000

====

- TEST_TARGET: human adenosine A2A receptor (Homo sapiens, UniProt P29274)
- Construct: expressed in transfected cells; host or cells: HEK293 cells infected with BacMam
- Sequence (P29274 whole entry): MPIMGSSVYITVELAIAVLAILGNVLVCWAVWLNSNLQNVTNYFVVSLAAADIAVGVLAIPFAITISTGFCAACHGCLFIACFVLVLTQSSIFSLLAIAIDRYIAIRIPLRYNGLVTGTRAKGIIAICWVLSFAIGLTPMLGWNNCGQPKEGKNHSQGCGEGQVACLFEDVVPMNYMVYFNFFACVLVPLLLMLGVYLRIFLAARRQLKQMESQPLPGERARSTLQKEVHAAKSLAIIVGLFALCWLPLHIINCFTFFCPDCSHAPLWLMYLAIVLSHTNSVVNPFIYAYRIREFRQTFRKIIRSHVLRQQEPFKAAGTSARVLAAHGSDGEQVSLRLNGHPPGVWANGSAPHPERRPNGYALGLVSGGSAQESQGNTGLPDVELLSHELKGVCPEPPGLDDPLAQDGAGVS
- TEST_DESCRIPTION: Inhibition binding assay, human adenosine A2A receptor membranes, [3H]ZM241385
- CONDITION_INFO: 1 nM [3H]ZM241385, HEK293-hA2A membranes, 25° C., 1 h; IC50 converted to Ki with Cheng-Prusoff; read-out: A2A pKi (converted)

COMPOUND	TEST_TARGET	Ki [nM]
Cc1cc(-c2c(-c3ccccc3)nc(N)n3c(=O)n(CCN4CCC4)nc23)cc(C)n1	human adenosine A2A receptor (Homo sapiens, UniProt P29274)	25.1
Cc1cc(-c2c(-c3ccccc3)nc(N)n3c(=O)n(Cc4ccncc4)nc23)cc(C)n1	human adenosine A2A receptor (Homo sapiens, UniProt P29274)	10
Cc1cc(-c2c(-c3ccccc3)nc(N)n3c(=O)n(C(C)c4ccc(F)cc4F)nc23)cc(C)n1 (stereo not drawn)	human adenosine A2A receptor (Homo sapiens, UniProt P29274)	6.31
Cc1cc(-c2c(-c3ccccc3)nc(N)n3c(=O)n(Cc4ccccc4CC4CCNCC4)nc23)cc(C)n1	human adenosine A2A receptor (Homo sapiens, UniProt P29274)	0.126
Cc1cc(-c2c(-c3ccccc3)nc(N)n3c(=O)n(CC4CCCCO4)nc23)cc(C)n1 (stereo not drawn) [Example 2-82]	human adenosine A2A receptor (Homo sapiens, UniProt P29274)	0.316
Cc1cc(-c2c(-c3ccccc3)nc(N)n3c(=O)n(CCOS(C)(=O)=O)nc23)cc(C)n1	human adenosine A2A receptor (Homo sapiens, UniProt P29274)	20
CCOC(=O)NCCn1nc2c(-c3cc(C)nc(C)c3)c(-c3ccccc3)nc(N)n2c1=O	human adenosine A2A receptor (Homo sapiens, UniProt P29274)	10
Cc1cc(-c2c(-c3ccc(F)cc3)nc(N)n3c(=O)n(Cc4ccc(Cl)cn4)nc23)cc(CO)n1	human adenosine A2A receptor (Homo sapiens, UniProt P29274)	3.98
Cc1cc(-c2c(-c3ccccc3)nc(N)n3c(=O)n(CCN4C[C@@H](C)O[C@@H](C)C4)nc23)cc(C)n1	human adenosine A2A receptor (Homo sapiens, UniProt P29274)	316
Cc1cc(-c2c(-c3ccco3)nc(N)n3c(=O)n(CCC(F)(F)F)nc23)cc(C)n1	human adenosine A2A receptor (Homo sapiens, UniProt P29274)	1
Cc1cc(-c2c(-c3ccccc3)nc(N)n3c(=O)[nH]nc23)cc(C)n1	human adenosine A2A receptor (Homo sapiens, UniProt P29274)	5.01
Nc1nc(-c2ccccc2)c(-c2cc(CO)nc(C(F)(F)F)c2)c2nn(CCC(F)(F)F)c(=O)n12	human adenosine A2A receptor (Homo sapiens, UniProt P29274)	1.26
CCC(c1ccc(F)cn1)n1nc2c(-c3cc(C)nc(CO)c3)c(-c3ccccc3)nc(N)n2c1=O (single isomer, unassigned) [1-46 iso-1]	human adenosine A2A receptor (Homo sapiens, UniProt P29274)	398
Cc1cc(-c2c(-c3ccccc3)nc(N)n3c(=O)n(CCc4ccccc4)nc23)cc(Cl)n1	human adenosine A2A receptor (Homo sapiens, UniProt P29274)	5.01
COc1cc(-c2c(-c3ccccc3)nc(N)n3c(=O)n(Cc4ccc(Cl)cn4)nc23)cc(CO)n1	human adenosine A2A receptor (Homo sapiens, UniProt P29274)	0.794

====

- TEST_TARGET: human adenosine A2A receptor (Homo sapiens)
- Construct: expressed in transfected cells; host or cells: HEK293 cells infected with BacMam
- TEST_DESCRIPTION: Inhibition binding assay, human adenosine A2A receptor membranes, [3H]ZM241385
- CONDITION_INFO: 1 nM [3H]ZM241385, HEK293-hA2A membranes, 25° C., 1 h; IC50 converted to Ki with Cheng-Prusoff; read-out: A2A pKi (converted)
Item-by-item account of Ki

COMPOUND	Ki
COC(=O)CCn1nc2c(-c3cc(C)nc(C)c3)c(-c3ccccc3)nc(N)n2c1=O	5.01 nM
Cc1cc(-c2c(-c3ccccc3)nc(N)n3c(=O)n(Cc4ccccc4OCC4CC4)nc23)cc(C)n1	0.158 nM
CCC(c1ccc(F)cn1)n1nc2c(-c3cc(C)nc(C)c3)c(-c3ccccc3)nc(N)n2c1=O (racemic) [Example 1-38]	100 nM
Cc1cc(-c2c(-c3ccccc3)nc(N)n3c(=O)n(Cc4ccc(Br)cn4)nc23)cc(CO)n1	2.51 nM
COc1nc(N)n2c(=O)n(CCC(F)(F)F)nc2c1-c1cc(C)nc(C)c1	1260 nM
Cc1cc(-c2c(-c3ccccc3)nc(N)n3c(=O)n(CC4CCN(C)CC4)nc23)cc(C)n1	200 nM
Cc1cc(-c2c(-c3ccccc3)nc(N)n3c(=O)n(CCN4CCCCC4)nc23)cc(C)n1	15.8 nM
Cc1cc(-c2c(-c3ccccc3)nc(N)n3c(=O)n(CCC(F)(F)F)nc23)cc(C)[n+]1[O-]	12.6 nM
Cc1cc(-c2c(-c3ccccc3)nc(N)n3c(=O)n(C4CSCc5ccccc54)nc23)cc(C)n1 (stereo not drawn)	1.26 nM
Cc1cc(-c2c(-c3ccccc3)nc(N)n3c(=O)n(C[C@@H]4CN(C(=O)OC(C)(C)C)CCN4C)nc23)cc(C)n1	10 nM
Cc1cc(-c2c(-c3ccccc3)nc(N)n3c(=O)n(CCc4ccc(O)cc4)nc23)cc(C)n1	12.6 nM
Cc1cc(-c2c(-c3ccc(F)cc3)nc(N)n3c(=O)n(CCN4CCCCC4)nc23)cc(Cl)n1	31.6 nM
Cc1cc(-c2c(-c3ccccc3)nc(N)n3c(=O)n(CCOC(F)(F)F)nc23)cc(C)n1	2.51 nM
Cc1cc(-c2c(-c3ccccc3)nc(N)n3c(=O)n(Cc4ncc(F)cc4Cl)nc23)cc(C)n1	0.631 nM
Cc1cc(-c2c(-c3ccccc3)nc(N)n3c(=O)n(CCO)nc23)cc(C)n1	100 nM
C/C=C(\C)c1nc(N)n2c(=O)n(CCC(F)(F)F)nc2c1-c1cc(C)nc(C)c1	10 nM
CCn1nc2c(-c3cc(C)nc(C)c3)c(-c3ccccc3)nc(N)n2c1=O	20 nM
Cc1cc(-c2c(-c3ccccc3)nc(N)n3c(=O)n(Cc4ccc(F)c(N)n4)nc23)cc(CO)n1	0.794 nM
Cc1cc(-c2c(-c3ccccc3)nc(N)n3c(=O)n(C[C@H]4CN(C(=O)OC(C)(C)C)CCN4C)nc23)cc(C)n1	6.31 nM
Cc1cc(-c2c(-c3ccccc3)nc(N)n3c(=O)n(CC45CC(F)(C4)C5)nc23)cc(CO)n1	3.98 nM
Cc1cc(-c2c(-c3ccc(F)cc3)nc(N)n3c(=O)n(Cc4ccc(F)c(N)n4)nc23)cc(CO)n1	1.58 nM
COc1cc(C)nc(Cn2nc3c(-c4cc(C)nc(C)c4)c(-c4ccccc4)nc(N)n3c2=O)c1	0.501 nM
Cc1cc(-c2c(-c3ccccc3)nc(N)n3c(=O)n(C(CNCC(F)(F)F)c4ccccc4)nc23)cc(C)n1 (stereo not drawn)	10 nM
Cc1cc(-c2c(-c3ccccc3)nc(N)n3c(=O)n(C(C)c4cccnc4)nc23)cc(C)n1 (stereo not drawn)	10 nM
Cc1cc(-c2c(-c3ccccc3)nc(N)n3c(=O)n(CCC(F)F)nc23)cc(C)n1	2 nM
Cc1cc(-c2c(-c3ccccc3)nc(N)n3c(=O)n([C@H](C)c4ccncc4)nc23)cc(C)n1	15.8 nM
Cc1cc(-c2c(-c3ccccc3)nc(N)n3c(=O)n(C[C@@H]4CN(C(=O)OC(C)(C)C)CCO4)nc23)cc(C)n1	6.31 nM
Cc1cc(-c2c(-c3ccccc3)nc(N)n3c(=O)n(CCC(=O)N(C)C)nc23)cc(C)n1	12.6 nM
Cc1cc(-c2c(-c3ccccc3)nc(N)n3c(=O)n(CCC(C)C)nc23)cc(C)n1	0.794 nM
COc1ccc(Cn2nc3c(-c4cc(C)nc(Cl)c4)c(-c4ccccc4)nc(N)n3c2=O)nc1	0.398 nM

These data points were gathered from patent US12528815B2.
